- Study Target: TJP2_1, Q9UDY2
- Sequence (Q9UDY2 24-128): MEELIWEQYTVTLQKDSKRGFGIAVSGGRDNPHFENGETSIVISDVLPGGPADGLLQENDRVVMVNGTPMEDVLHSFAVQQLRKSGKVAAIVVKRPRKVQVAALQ
- Method: holdup assay
- Parameters: key: below the threshold = too weak to quantify, mostly under pKd 3.1 to 4
- Experimental Setup: plain residues with an end cap or a label only (N-terminal biotin on a linker: ttds)
Result Type: pKd

Record excerpt, results attached:
LCALPKVTTV [AGMAT, Q9BSE5]: 3.91
PKRPFVESNV [TANC2, Q9HCD6]: below the threshold
DPRNTQTSQI [ABRAXAS2, Q15018]: below the threshold
GGPKEEESPV [SLC16A1, P53985]: below the threshold
DPLTPSRSQL [DGKK, Q5KSL6]: below the threshold
QFQYAKESYI [TAGAP, Q8N103]: 4.43

Then this binder:
Recorded pKd for LDSQIQETSI [MAP4, P27816] , please? below the threshold

// provenance: paper PMC9482650
